System: OH-BUP formation by baboon hepatic microsomes
MEASURED_PARAMETER: inhibition

Item: C=C(C)[C@@H]1CCC2=CC(=O)C[C@@H](C)[C@]2(C)C1 [(+)-nootkatone] Test system: OH-BUP formation by baboon hepatic microsomes Read-out: inhibition Value: ?
10 to 15%
